measured-on: Retinal dehydrogenase 2 (Homo sapiens)
method-summary: qHTS for Inhibitors of the Aldehyde Dehydrogenase Family (ALDH1A2) Confirmation screens (AID 2061314); further: nearly all actives have a fitted effect of over 65% in size
reported-conditions: ALDH1A2 enzyme inhibition qHTS confirmation; series mostly up to 45.9 µM
Records with an inconclusive call do not appear. Calls of active or inactive are those of the source. The call rests on the fitted dose curve; in most records, active means well fitted inhibition curve with a large enough effect; inconclusive means small, poorly fitted or top-dose-only effect; inactive means no such curve, though single readings can be large or run the other way.
Permitted responses: active, inactive

COc1ccc(CC(=O)N2CCC3(CC2)CN([S+](=O)([O-])c2ccccc2)CCO3)cc1	inactive
Cc1ccc(CN(C)c2ncnc3ccc(-c4ccc(CO)o4)cc23)o1	active
N#Cc1c(-c2cccc(Br)c2)no[n+]1[O-]	active
COc1cccc(-c2ccc(C(=O)N3CCC(N[S+](=O)([O-])CCC(F)(F)F)CC3)cc2)c1	inactive

Proceed to the following item.
## Task For "O=C(NCc1ccc2c(c1)OCO2)c1csc(N2CCN(c3ccc(F)cc3)CC2)n1" , which call appears in the assay record?
## Result inactive

* * *

measured-on: Retinaldehyde dehydrogenase 3 (Homo sapiens) (UniProt P47895)
method-summary: qHTS for Inhibitors of the Aldehyde Dehydrogenase Family (ALDH1A3) Confirmatory screens (AID 2061311); further: nearly all actives have a fitted effect of over 60% in size
reported-conditions: ALDH inhibition qHTS; series mostly up to 46 µM
Inconclusive results are not listed. The source made the active and inactive calls. Calls come from the whole dose curve; as a rule, active = well fitted inhibition curve with a large enough effect; inconclusive = small, poorly fitted or top-dose-only effect; inactive = no such curve, though single readings can be large or run the other way.
Permitted responses: active, inactive

// below: answered compounds
CCn1nc(-c2cccc(-c3ccnn3C)c2)nc1N(C)C	inactive
CCc1nn2c(=O)c(S(=O)(=O)Nc3ccc(C)cc3C)c(C)nc2s1	inactive
N#Cc1cccc(C(=O)Nc2ccc([C@H]3OCC(=O)N(C4CCOCC4)[C@@H]3CO)cc2)c1	inactive

Proceed to the following item.
## Task For "COc1ccc(C(=O)N(Cc2ccccc2)Cc2ccco2)c(O)c1" , which call appears in the assay record?
## Result active

* * *

method-summary: BET inhibitor-based combinations targeting novel dependencies in MECOM-rearranged (r) AML: AML-191 cell line (AID 2202236; further: nearly all actives have a fitted effect of over 35% in size;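 on viability (% of control): plate controls were vehicle wells for no effect and wells without cells for full effect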)
reported-conditions: AML-191 viability, CellTiter-Glo luminescence, 48 h; series mostly up to 46 µM
Records with an inconclusive call do not appear. The source made the active and inactive calls. The call rests on the fitted dose curve; in most records, active means well fitted inhibition curve with a large enough effect; inconclusive means small, poorly fitted or top-dose-only effect; inactive means flat fitted curve, though single readings scatter.
test-readout: viability (% of control)

COc1cc2c(cc1OC)CN(CCc1ccc(-n3nnc(-c4cc(OC)c(OC)cc4NC(=O)c4cc(=O)c5ccccc5o4)n3)cc1)CC2	99.1% [at 0.315 µM] (inactive)
CCCCCN(C)CCC(O)(P(=O)(O)O)P(=O)(O)O	111% [at 5.12 µM] (inactive)
CN1CCN(C(=O)[C@H]2[C@@H](C(=O)O)[C@H]3CC[C@@H]2O3)CC1	93.9% [at 8.46 µM] (inactive)
Cn1cc(C[C@@H](N)C(=O)O)c2ccccc21	110% [at 8.46 µM] (inactive)
COCCNc1cc(NC(=O)N2CCCc3cc(CN4CCN(C)CC4=O)c(C=O)nc32)ncc1C#N	96.5% [at 8.46 µM] (inactive)

Could you now consider this next compound?
## Task So what's the measured viability (% of control) for this one? "O=C(/C=C/c1ccc(/C=C/C(=O)Nc2ccc(C3=NCCN3)cc2)cc1)Nc1ccc(C2=NCCN2)cc1"
## Result 109% [at 5.12 µM] (inactive)

* * *

method-summary: BET inhibitor-based combinations targeting novel dependencies in MECOM-rearranged (r) AML: AML-191 cell line (AID 2202236)
reported-conditions: AML-191 viability, CellTiter-Glo luminescence, 48 h; series mostly up to 46 µM
Description: Ecotropic viral insertion site 1 (EVI1) is located on chromosome 3q26.2 as part of the MECOM (MDS and EVI1 complex) locus. […] A collection of 2480 mechanistically annotated dugs (MIPE v5.0) was used to screen four 3q26.2 rearranged AML cell lines and three non-3q26.2 rearranged AML cell lines. […] Cell viability was determined by luminescence based, Cell Titer Glo assay (Promega). […] Luminescence readings were taken using a Viewlux (PerkinElmer) with a 2 s exposure time per plate. […]
Inconclusive results are not listed. The source made the active and inactive calls. The call rests on the fitted dose curve; in most records, active means well fitted inhibition curve with a large enough effect; inconclusive means small, poorly fitted or top-dose-only effect; inactive means flat fitted curve, though single readings scatter.
Permitted responses: active, inactive

CCCCC(=O)OCC(=O)[C@]1(O)Cc2c(O)c3c(c(O)c2[C@@H](O[C@H]2C[C@H](NC(=O)C(F)(F)F)[C@H](O)[C@H](C)O2)C1)C(=O)c1c(OC)cccc1C3=O	active
CCCCNc1ncc2c(-c3ccc(F)cc3)nn(CC3CCC(N)CC3)c2n1 (stereo unspecified)	active
Cc1ncsc1-c1ccc([C@H](C)NC(=O)[C@@H]2C[C@@H](O)CN2C(=O)[C@@H](NC(=O)COCCCOCCNC(=O)C[C@@H]2N=C(c3ccc(Cl)cc3)c3c(sc(C)c3C)-n3c(C)nnc32)C(C)(C)C)cc1	active

## Task For "Cc1c(F)cccc1NC(=O)Nc1ccc(Cl)c(S(=O)(=O)[C@H]2CCCNC2)c1O" , which call appears in the assay record?
## Result inactive

## Task For "Nc1ncccc1-c1nc2ccc(-c3ccccc3)nc2n1-c1ccc(C2(N)CCC2)cc1" , which call appears in the assay record?
## Result active

## Task For "COc1ccc(-c2ccc3ncc4c(c3c2)n(-c2ccc(N3CCNCC3)c(C(F)(F)F)c2)c(=O)n4C)cn1" , which call appears in the assay record?
## Result active

## Task For "Cc1[nH]cnc1CN1CCN(C(=O)N[C@@H](CC(C)C)C(=O)O)[C@@H](Cc2ccccc2)C1=O" , which call appears in the assay record?
## Result inactive

## Task For "C=CC(=O)N1CC(N2CCN(C(=O)CNc3cc(C4(C)CC4)c(Cl)cc3O)CC2)C1" , which call appears in the assay record?
## Result inactive

## Task For "CN(C)C[C@@H]1CCn2cc(c3ccccc32)C2=C(C(=O)NC2=O)c2cn(c3ccccc23)CCO1" , which call appears in the assay record?
## Result active

## Task For "CNC(=O)c1ccc(N2C(=S)N(c3ccc(C#N)c(C(F)(F)F)c3)C(=O)C2(C)C)cc1F" , which call appears in the assay record?
## Result inactive

## Task For CCC(C)CNCC(=O)N1CCc2sccc2C1c1cccc(C)n1 (stereo unspecified) , which call appears in the assay record?
## Result inactive

## Task For "CC[C@H]1OC(=O)[C@H](C)[C@@H](O[C@H]2C[C@@](C)(OC)[C@@H](O)[C@H](C)O2)[C@H](C)[C@@H](O[C@@H]2O[C@H](C)C[C@H](N(C)C)[C@H]2O)[C@](C)(O)C[C@@H](C)C(=O)[C@H](C)[C@@H](O)[C@]1(C)O" , which call appears in the assay record?
## Result inactive

## Task For "COc1cc2nc(-c3ccc(N4CCN(C)CC4)cc3)nc(NCCN3CCOCC3)c2cc1OC" , which call appears in the assay record?
## Result active

## Task For "COc1cc2c3c(n(CCCn4ccnc4)c(=O)c2cc1OC)-c1cc2c(cc1C3=O)OCO2" , which call appears in the assay record?
## Result active

## Task For Nc1nc(F)nc2c1ncn2C1OC(COP(=O)(O)O)C(O)C1O (stereo unspecified) , which call appears in the assay record?
## Result active

## Task For "CN(C)c1ccc(Nc2nc(N)n(C(=O)c3c(F)cccc3F)n2)cc1" , which call appears in the assay record?
## Result active

* * *

method-summary: qHTS for Inhibitors of the Aldehyde Dehydrogenase Family (ALDH1A2, ALDH1A3, ALDH2, ALDH3A1) (AID 2061307); further: nearly all actives have a fitted effect of over 50% in size
reported-conditions: ALDH inhibition qHTS; series mostly up to 50.3 µM
Inconclusive results are not listed. The source made the active and inactive calls. Calls follow the shape of the dose curve; as a rule, active = well fitted inhibition curve with a large enough effect; inconclusive = small, poorly fitted or top-dose-only effect; inactive = no such curve, though single readings can be large or run the other way.
Permitted responses: true = active, false = inactive

// below: answered compounds
c1nc(NCC2CC2)c2cc(-c3ccc4c(c3)OCO4)ccc2n1	false
O=C(c1cccc(F)c1)N1CCCC2(CCN(C(c3ccccc3)c3ccccc3)C2)C1 (stereo unspecified)	false
O=C(c1cc(-c2ccccc2Cl)nc2ccccc12)N1CCN(c2ccccc2O)CC1	false
O=C1c2ccccc2C(=O)N1c1cccc(=O)[nH]1	false
Fc1ccc(Cn2cnc3ccccc32)cc1Cl	true
COc1ccccc1CN1CCC(N(CCc2ccccc2)Cc2ccccc2)CC1	false

## Task For "COc1ccc(C(N)=O)cc1NC(=O)c1ccn(-c2ccc(F)cc2)n1" , which call appears in the assay record?
## Result false

## Task For "O=C(Nc1cccc(C(F)(F)F)c1)c1ccccc1NCc1cccc(C(F)(F)F)c1" , which call appears in the assay record?
## Result false

## Task For "Cc1ccc(CN(C)c2ncnc3ccc(-c4ccc(C#N)n4C)cc23)o1" , which call appears in the assay record?
## Result true

## Task For "Cc1cc(NC(=O)c2ccc(NC(=O)Cc3ccc(Cl)c(Cl)c3)cc2)no1" , which call appears in the assay record?
## Result false

## Task For "CCOc1ccc(CNC(=O)c2cnc3c(C)cccn3c2=O)cc1" , which call appears in the assay record?
## Result false

* * *

method-summary: BET inhibitor-based combinations targeting novel dependencies in MECOM-rearranged (r) AML: MV-4-11 cell line (AID 2202233); further: nearly all actives have a fitted effect of over 45% in size
reported-conditions: MV-4-11 AML viability, CellTiter-Glo luminescence, 48 h; series mostly up to 46 µM
Protocol: Ecotropic viral insertion site 1 (EVI1) is located on chromosome 3q26.2 as part of the MECOM (MDS and EVI1 complex) locus. […] A collection of 2480 mechanistically annotated dugs (MIPE v5.0) was used to screen four 3q26.2 rearranged AML cell lines and three non-3q26.2 rearranged AML cell lines. […] Cell viability was determined by luminescence based, Cell Titer Glo assay (Promega). […] Luminescence readings were taken using a Viewlux (PerkinElmer) with a 2 s exposure time per plate. […]
Results filed as inconclusive are left out. Calls of active or inactive are those of the source. The call rests on the fitted dose curve; in most records, active means well fitted inhibition curve with a large enough effect; inconclusive means small, poorly fitted or top-dose-only effect; inactive means no such curve, though single readings can be large or run the other way.
Permitted responses: active, inactive

COc1ccc2c(c1)c(C1=C(c3c[nH]c4ccccc34)C(=O)NC1=O)cn2CCCN(C)C	active
COc1ccc(-c2ccc3ncc4c(c3c2)n(-c2ccc(N3CCNCC3)c(C(F)(F)F)c2)c(=O)n4C)cn1	active
O=C(/C=C/c1ccc2ccc(C(F)(F)F)cc2n1)c1ccncc1	active

## Task For "Cc1ccc(-c2ccc(C)cn2)nc1" , which call appears in the assay record?
## Result inactive

## Task For Cc1cc(-c2cnn3c(NCC4CC(C)(O)C4)cc(Oc4cccnc4)nc23)ccc1C(=O)NC1CC1 (stereo unspecified) , which call appears in the assay record?
## Result active
